Origin of the recorded values: paper PMC5540273

tested on: TXK; conditions: concentration: 1 μM, replicates: in singlicate; n = 1;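 note: KINOMEscan kinase panel screen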
Lab note: cut-off is 10%. Strictly less in %Inh is Satisfied. Exactly 10% or more is Not satisfied.

>>> print(df.to_string())
                                   molecule  measured_on          label
0  COc1ccc(Nc2nccc(NCCNC(=O)Nc3cc(C)ccc3C)n2)cc1 [GSK1379899]          TXK  Not satisfied
1  CC[C@@H]1CO[C@H](C(=O)Nc2ccccc2)CN1c1cc(-c2ccc3c(N)n[nH]c3c2)nc(NC)n1 [GSK2376236]          TXK      Satisfied
2  CCc1ccc(-c2ccc3c(c2)-c2n[nH]cc2S(=O)(=O)N3C)cc1          TXK  Not satisfied
3  Fc1ccc(-c2nn3cccc(F)c3c2-c2ccncc2)cc1 [GW475620]          TXK      Satisfied

In the following, a different molecule is considered.
Request: Please check: %Inh for CCn1c(-c2c(N)noc2C)nc2cnccc21 [SB-737856] , strictly under 10% or not?
Response: Not satisfied

====

system: HIPK1; conditions: concentration: 1 μM, replicates: in singlicate; n = 1
MEASURED_PARAMETER: %Inh (%)
Answers are plain numbers, in %.

Consider the following illustrative entries.
>>> print(df.to_string())
                                   compound  measured_parameter  recorded_number
0               c1ccc(-c2ccnc3[nH]ccc23)cc1                %Inh                4
1  COc1ccc2cc(-c3nc(-c4ccccc4C(C)C)[nH]c3-c3ccncc3)ccc2c1                %Inh                0
2  Cc1ccc(NC(=O)Nc2ccccc2F)cc1-c1ccc(C(=O)Nc2ccncc2)cc1                %Inh                0
3  CS(=O)(=O)CCNCc1nc(-c2ccc3ncnc(Nc4ccc(OCc5ccccc5)c(Cl)c4)c3c2)cs1.Cl                %Inh                0
4  COc1ccc(Nc2nccc(N3CCC(NC(=O)c4cc5ccccc5s4)C3)n2)cc1 (stereo not drawn)                %Inh                0
5  COC(=O)C(NC(=O)NC1CCN(c2ccnc(Nc3ccc(F)cc3)n2)C1)c1ccccc1 (stereo not drawn)                %Inh               12

Hey, can you go through the list below and give me %Inh for every item?
1. O=C(Nc1n[nH]c2nc(-c3cccs3)c(Br)cc12)C1CCCC1
2. COc1cccc(C2=C(Nc3cc(Cl)c(O)c(Cl)c3)C(=O)NC2=O)c1
3. COc1ccc(Nc2nccc(NCCNC(=O)Nc3cc(C)ccc3C)n2)cc1

Response:
1: 20; 2: 0; 3: 0

====

system: ABL2; details: concentration: 1 μM, replicates: in singlicate; n = 1
Would you kindly list %Inh for each of these molecules?
One number for each entry, in %.

In [3]: df
Out[3]:
                                   molecule  measured_parameter  scale_unit  recorded_number
0  COc1cccc(CNC(=O)NC2CCN(c3ccnc(Nc4ccc(F)cc4)n3)C2)c1 (centres unmarked)                %Inh           %                8
1  CNC(=O)c1ccc(C)c(-n2c(C)cc(OCc3ccc(F)cc3F)c(Br)c2=O)c1                %Inh           %                0
2   COc1ccc(-c2coc3ccc(-c4nnc(C)o4)cc23)cc1                %Inh           %                0
3  CN1c2ccc(-c3ccc(C(N)=O)cc3)cc2-c2[nH]ncc2S1(=O)=O                %Inh           %                0

Now consider a different molecule.
Bench note, ABL2: entry "Nc1nccc(-c2c(-c3ccc(F)cc3)ncn2C2CCN(Cc3ccccc3)CC2)n1" , its %Inh = 0
